Assignment: determine reported IC50 for the given compounds.
# targetOfAssay: full-length human PKCι (Homo sapiens, UniProt P41743)
# Construct: Recombinant, full-length human PKCι expressed in Sf21 insect cells is also commercially available
# Sequence (P41743 1-596): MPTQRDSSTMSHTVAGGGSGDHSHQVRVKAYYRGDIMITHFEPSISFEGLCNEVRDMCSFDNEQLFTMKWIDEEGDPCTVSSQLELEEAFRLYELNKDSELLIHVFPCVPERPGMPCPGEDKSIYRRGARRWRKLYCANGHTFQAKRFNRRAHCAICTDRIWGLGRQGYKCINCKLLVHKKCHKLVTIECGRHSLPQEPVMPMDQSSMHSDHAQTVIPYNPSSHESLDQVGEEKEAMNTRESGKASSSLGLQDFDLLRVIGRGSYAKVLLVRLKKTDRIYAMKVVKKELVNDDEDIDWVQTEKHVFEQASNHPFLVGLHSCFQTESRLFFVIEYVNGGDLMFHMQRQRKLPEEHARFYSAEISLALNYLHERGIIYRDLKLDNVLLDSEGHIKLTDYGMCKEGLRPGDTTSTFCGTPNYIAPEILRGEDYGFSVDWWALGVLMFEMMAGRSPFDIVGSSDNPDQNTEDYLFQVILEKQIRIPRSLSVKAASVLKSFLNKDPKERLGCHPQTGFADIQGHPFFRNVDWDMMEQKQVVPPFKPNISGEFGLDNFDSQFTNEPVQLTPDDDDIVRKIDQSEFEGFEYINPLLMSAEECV
# assaySummary: PKCι IC50 IMAP assay, full-length PKCι at 150 μM ATP
# particulars: read-out: IC50 in IMAP assay against full length PKCi at 150 μM ATP

In: Looking for the measured IC50 of C[C@H]1CN(c2nc(-c3ccnc(Nc4c(F)cccc4F)c3)nc3cncc(C4CC4)c23)CCN1 , can you help?
Out: < 100 nM

In: Looking for the measured IC50 of CS(=O)(=O)CCN1CCN(c2nc(-c3ccnc(Nc4ccc(F)cc4)c3)nc3cncc(C4CC4)c23)CC1 , can you help?
Out: 1000 to 10000 nM

In: Looking for the measured IC50 of CN(c1nc(-c2ccnc(Nc3nc(F)c(F)cc3F)c2)nc2cncc(C3CC3)c12)C1CCNCC1 , can you help?
Out: < 100 nM

In: Looking for the measured IC50 of O[C@H]1c2ccccc2C[C@@H]1Nc1cc(-c2nc(N3CCNCC3)c3c(C4CC4)cncc3n2)ccn1 (relative stereo) , can you help?
Out: < 100 nM

In: Looking for the measured IC50 of CCc1cc2c(-c3nc(N4CCNCC4)c4c(OC)cncc4n3)ccnc2[nH]1 , can you help?
Out: 100 to 1000 nM

In: Looking for the measured IC50 of FC(F)(F)Cn1cc(Cl)c(Nc2cc(-c3nc(N4CCNCC4)c4c(C5CC5)cncc4n3)ccn2)n1 , can you help?
Out: < 100 nM

In: Looking for the measured IC50 of c1cc(-c2nc(N3CCNCC3)c3c(C4CC4)cncc3n2)cc(N[C@@H]2C[C@H]3CC[C@@H]2O3)n1 (racemic) , can you help?
Out: < 100 nM

In: Looking for the measured IC50 of CN1CCN(c2cccc(Nc3cc(-c4nc(N5CCCCC5)c5c(C6CC6)cncc5n4)ccn3)c2)CC1 , can you help?
Out: 100 to 1000 nM

In: Looking for the measured IC50 of CC(C)(C)C(=O)N1CCC(Nc2cc(-c3nc(N4CCNCC4)c4c(C5CC5)cncc4n3)ccn2)CC1 , can you help?
Out: < 100 nM

In: Looking for the measured IC50 of c1ccc(Nc2cc(-c3nc(N4CCN[C@@H](C5CC5)C4)c4c(C5CC5)cncc4n3)ccn2)cc1 , can you help?
Out: < 100 nM

In: Looking for the measured IC50 of Fc1ccnc(F)c1Nc1cc(-c2nc(N3CCNCC3)c3c(C4CC4)cncc3n2)ccn1 , can you help?
Out: < 100 nM

In: Looking for the measured IC50 of COc1cncc2nc(-c3ccnc(Nc4cccc(C(F)(F)F)c4F)c3)nc(N3CCNCC3)c12 , can you help?
Out: 100 to 1000 nM

In: Looking for the measured IC50 of OC1CCN(c2nc(-c3ccnc4[nH]c(C5(c6ccccc6)CC5)cc34)nc3cncc(C4CC4)c23)CC1 , can you help?
Out: < 100 nM

In: Looking for the measured IC50 of COc1cncc2nc(-c3ccnc(Nc4cccc(N5CCOCC5)c4)c3)nc(N[C@@H]3CCNC3)c12 , can you help?
Out: < 100 nM

In: Looking for the measured IC50 of COc1cncc2nc(-c3ccnc4[nH]c(Cc5ccccc5)cc34)nc(N3CCNCC3)c12 , can you help?
Out: < 100 nM
